Target or test system: E. Coli RecA protein (Escherichia coli, UniProt P0A7G6)
Construct: purchased New England Biolabs
Sequence (P0A7G6 2-353): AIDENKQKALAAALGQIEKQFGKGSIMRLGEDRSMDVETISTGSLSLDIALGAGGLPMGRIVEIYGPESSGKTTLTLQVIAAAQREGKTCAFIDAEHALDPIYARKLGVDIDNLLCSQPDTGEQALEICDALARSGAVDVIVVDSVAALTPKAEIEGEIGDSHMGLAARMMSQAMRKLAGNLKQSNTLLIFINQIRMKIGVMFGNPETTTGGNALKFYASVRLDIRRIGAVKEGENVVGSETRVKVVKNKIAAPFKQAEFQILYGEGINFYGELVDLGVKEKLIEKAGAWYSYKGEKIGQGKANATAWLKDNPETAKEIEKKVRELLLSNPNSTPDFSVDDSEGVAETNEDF
Protocol description: RecA ATPase activity, in vitro luciferase assay
Format: biochemical
Measurement parameters: luciferase assay screen, FIG. 14
Value type: activity as inhibitor of RecA ATPase (in words)

O=c1cc(-c2ccc(O)cc2)oc2cc(O)cc(O)c12 [apigenin] :: particularly active
O=c1cc(-c2ccc(O)cc2)oc2cc(O)c(O)c(O)c12 [6-hydroxy-apigenin] :: particularly active
O=c1c(O)c(-c2ccc(O)c(O)c2)oc2cc(O)c(O)c(O)c12 [quercetagetin] :: particularly active
O.O.O=c1c(O)c(-c2ccc(O)c(O)c2)oc2cc(O)cc(O)c12 [quercetin dihydrate] :: particularly active
O=c1c(O)c(-c2ccc(O)c(O)c2)oc2cc(O)ccc12 [fisetin] :: particularly active

Query for E. Coli RecA protein (Escherichia coli, UniProt P0A7G6): what activity as inhibitor of RecA ATPase (in words) does the record show for COc1cc(-c2oc3cc(O)cc(O)c3c(=O)c2O)ccc1O [isorhamnetin] ? particularly active

Try this compound next: O=c1c(O)cc([C@H]2Oc3cc(O)cc(O)c3C[C@H]2O)cc2c([C@H]3Oc4cc(O)cc(O)c4C[C@H]3O)cc(O)c(O)c12 [theaflavin] particularly active

Okay, and O=c1c(O)c(-c2ccc(O)cc2)oc2cc(O)ccc12 [3,7,4′-trihydroxyflavone] ? particularly active
